target: Oregon-Green-labelled actin monomers (OG-actin) (UniProt P68135 1-377, Oregon-Green (OG) label, position not stated); assay: other fluorescence titration
What pKd was measured for each of the following?
One number for each entry, as −log10 of the molar value.

As a guide, the following entries are already answered.
- GRNALLGSIENFSKGGLKKTVT [DdGAB peptide (G-actin-binding site of Dictyostelium discoideum VASP)]: 6.20
- GRNALLSDISKGKKLKKTVT [WIP-WH2-peptide (WH2 core motif of WASP-interacting protein)]: 6.08

Let us move to another entry and its pKd.
stdin: What measured pKd goes with GLAAAIAGAKLRKVSK [hGAB peptide (G-actin-binding site of human VASP)] ?
stdout: 4.99
